assayTarget: CprK (Desulfitobacterium hafniense, UniProt B8FW11, C200S)
Sequence (B8FW11 entry or part of it C200S): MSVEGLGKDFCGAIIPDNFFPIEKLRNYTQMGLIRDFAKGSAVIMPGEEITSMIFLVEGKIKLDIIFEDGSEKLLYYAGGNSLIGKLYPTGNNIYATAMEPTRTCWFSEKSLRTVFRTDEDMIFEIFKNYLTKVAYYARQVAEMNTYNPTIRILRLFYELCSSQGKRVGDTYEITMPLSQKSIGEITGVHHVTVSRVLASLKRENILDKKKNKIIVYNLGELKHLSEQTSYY
assayOverview: cell-based
Format: cell-based
experimentalConditions: in vivo, CprK C200S, Hill fit
assayReadout: n (Hill coefficient)
Answer with a bare number; do not write a unit.

The cases that follow already have their n (Hill coefficient) on record.
{"molecule": "O=C(O)Cc1ccc(O)cc1 [HPA, 4-hydroxyphenylacetic acid]", "n (Hill coefficient)": 2.1}
{"molecule": "O=[N+]([O-])c1ccc(O)c(Br)c1", "n (Hill coefficient)": 2.1}
{"molecule": "O=[N+]([O-])c1ccc(O)cc1", "n (Hill coefficient)": 2.8}
{"molecule": "O=[N+]([O-])c1ccc(O)c(Cl)c1", "n (Hill coefficient)": 1.7}

Query: Look up n (Hill coefficient) for this molecule: O=C(O)Cc1ccc(O)c(Br)c1 [3-bromo-4-hydroxyphenylacetic acid]
Response: 3.2

---

assayTarget: CprK G85A (Desulfitobacterium hafniense, UniProt B8FW11, C200S/G85A)
assayOverview: In vivo GFPUV-DB7 reporter assay, G85A CprK mutant
assayReadout: Kd (µM)
Just the number please, in µM, no unit attached.

Query: Look up Kd for this compound: O=C(O)Cc1ccc(O)c(Cl)c1 [OCPA, 3-chloro-4-hydroxyphenylacetic acid]
Response: 1.03

---

Form field: n (Hill coefficient) (one value per entry).
assayTarget: CprK (Desulfitobacterium hafniense, UniProt B8FW11, C200S)
assayOverview: cell-based
Type: cell-based
experimentalConditions: in vivo, CprK C200S, Hill fit
Answer with a bare number; do not write a unit.

The cases that follow already have their n (Hill coefficient) on record.
{"compound": "O=C(O)Cc1ccc(O)c(F)c1 [3-fluoro-4-hydroxyphenylacetic acid]", "assayTarget": "CprK (Desulfitobacterium hafniense, UniProt B8FW11, C200S)", "n (Hill coefficient)": 1.8}
{"compound": "O=C(O)Cc1ccc(O)c(Cl)c1 [OCPA, 3-chloro-4-hydroxyphenylacetic acid]", "assayTarget": "CprK (Desulfitobacterium hafniense, UniProt B8FW11, C200S)", "n (Hill coefficient)": 2.0}
{"compound": "O=[N+]([O-])c1ccc(O)c(F)c1", "assayTarget": "CprK (Desulfitobacterium hafniense, UniProt B8FW11, C200S)", "n (Hill coefficient)": 4.7}

Please examine the following record next.
Query: Look up n (Hill coefficient) for this compound: `Cc1cc([N+](=O)[O-])ccc1O`
Response: 1.8

---

assayTarget: CprK G85P (Desulfitobacterium hafniense, UniProt B8FW11, C200S/G85P)
assayOverview: In vivo GFPUV-DB7 reporter assay, G85P CprK mutant
assayReadout: pKd
Conceptually, pKd converts a concentration in mol/L into minus its log10.

Query: Look up pKd for this molecule: O=C(O)Cc1ccc(O)c(Cl)c1 [OCPA, 3-chloro-4-hydroxyphenylacetic acid]
Response: 4.06
